B1: Protein piccolo, residues 1058 to 1114; numbered along this chain, Q9Y6V0 (parent)
chain: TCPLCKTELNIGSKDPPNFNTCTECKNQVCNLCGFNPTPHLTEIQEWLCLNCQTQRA

Variants of: B1
Assay: abundance fitness (aPCA) (normalised: wild type 0, dead -1); higher = more abundant; growth selection in yeast, the domain comes from the species named
Conditions: Homo sapiens
variants and their reported abundance fitness
Could you respond with only the numeric value?

For orientation, consider the following solved cases.
* C49P | -0.418
* F19R | -0.263
* G12D | 0.357

[Q] Looking for the measured abundance fitness of P39C , can you help?
[A] -0.115

[Q] Moving on to N20D
[A] 0.186

meta.source: the Human Domainome abundance scans (Beltran et al. 2025)
